src = patent US20020115723A1

System: AP-1
Assay: Test on the function of inhibiting the AP-1 activation induced by ultraviolet rays (gel shift assay)
Format: cell-based, human
Details: 10 μM, single compound
Consider the following compounds; for each one, report its AP-1 activation Inhibiting ratio (%).
One number for each entry, in %.

// solved cases for AP-1 activation Inhibiting ratio (%) follow
| Compound | AP-1 activation Inhibiting ratio (%) |
| --- | --- |
| COC(=O)[C@H](CSSC[C@H](NC(C)=O)C(=O)OC)NC(C)=O | 4 |
| CCCCC(CC)COC(=O)C=Cc1ccc(OC)cc1 (stereo not drawn) [2-ethylhexyl p-methoxycinnamate] | −20 |
| CC1=C(/C=C/C(C)=C/C=C/C(C)=C/C=C/C=C(C)/C=C/C=C(C)/C=C/C2=C(C)C(=O)[C@@H](O)CC2(C)C)C(C)(C)C[C@H](O)C1=O [astaxantin] | 0 |
| Cc1c(C)c2c(c(C)c1O)CCC(C)(CCCC(C)CCCC(C)CCCC(C)C)O2 (racemic) | 5 |
| CC1(C)[C@@H](O)CC[C@]2(C)[C@H]3C(=O)C=C4[C@@H]5C[C@@](C)(C(=O)O)CC[C@]5(C)CC[C@@]4(C)[C@]3(C)CC[C@@H]12 | 2 |

Please examine the following record next.
Which value of AP-1 activation Inhibiting ratio (%) has been reported for `COc1ccc(C(=O)CC(=O)c2ccc(C(C)(C)C)cc2)cc1` in the records?
17
